Data origin: PubChem BioAssay (NCI)

- Tested on: SN12C renal
- method notes: NCI-60 one-dose screen, 48 h (100 = growth as untreated, 0 = no growth, -100 = all killed)
- condition details: 10 µM unless noted
The panel holds about 83,000 compounds, 20% with a hit somewhere; the sample as a whole holds those more often.

# molecule, growth, %
measured = [
    ("CCn1c2ccc(/C=N/OCCCN(C)C)cc2c2cc(/C=N/OCCCN(C)C)ccc21", 63.6),
    ("O=c1c2ccccc2nc(COc2ccccc2)n1/N=C/C=C/c1ccccc1", 87.6),
    ("O=C(CSc1ccc(-c2nc3ccccc3[nH]2)cn1)N1CCN(c2ccccc2F)CC1", 90.4),
    ("NC(N)=NS(=O)(=O)c1ccc(N=NC2C(=O)NN(c3ccccc3)C2=O)cc1 (configuration not stated)", 101),
    ("Cc1nn(-c2ccccc2)cc1/C=N/Nc1nc(Nc2ccccc2)nc(Nc2ccc(S(N)(=O)=O)cc2)n1", 0.245),
    ("COc1ccc(NC(=O)Cn2cc(CN3C(=O)c4ccc([N+](=O)[O-])cc4C3=O)nn2)cc1", 99.7),
    ("O=C(Nc1ccc(F)cc1)c1cc(-c2ccc(F)cc2F)ccc1O", 3.57),
    ("C#Cc1ccc(NC(=O)c2ccc(/C=C/C(=O)c3nccn3C)cc2)c(F)c1", 16.3),
    ("COc1ccc2c(c1)oc1c3[nH]c4ccccc4c3c3c(c21)C(=O)N(O)C3=O", 40.5),
    ("C/C(=C(/c1ccc(O)cc1)c1ccc(OCCN2CCCCCC2)cc1)c1ccccc1", 57.2),
    ("Cc1cc(O)c(=O)cc2c1C[C@H]1CC(C)(C)/C=C/C[C@]3(C)Oc4cc(=O)c(O)cc(C)c4C[C@H]3C[C@H](O)[C@@]1(C)O2", 6.41),
    ("COc1cc(/C=N/Nc2ccnc3cc(Cl)ccc23)cc(OC)c1O", -64.7),
    ("COC(=O)Nc1ccc(-c2nc(-c3cccc(O)c3)c(-c3ccnc(Br)c3)[nH]2)cc1", 60.4),
    ("Cc1[nH]nc2ccc(-c3nc4cnc(N5CCN(C)CC5)cn4c3Nc3ccc(F)cc3Br)cc12", 29.9),
    ("CN(c1ccc(Cl)cc1)S(=O)(=O)c1ccc(-c2cnc(C3CC3)o2)cc1", 29.8),
    ("CN1C(=O)N(C)C2Nn3c(s/c(=C\\c4ccccn4)c3=O)=NC21 (configuration not stated)", 104),
    ("Clc1ccccc1/C=C/c1nn2c(-c3ccncc3)nnc2s1", 103),
    ("CC(C)C(=O)Nc1ccc(-c2nc(-c3cccc(O)c3)c(-c3ccnc(Br)c3)[nH]2)cc1", 63.5),
    ("CCOc1ccc2nc(NC(=O)Nc3ccccc3C)sc2c1", 58.7),
    ("O=C(NCCCNc1cc(-c2cn(-c3ccccc3)nc2-c2cccc(O)c2)ccn1)Nc1ccc(F)cc1", 31.1),
    ("O=C(O)c1ccc(-n2cc(CNc3ccc(Cl)cc3)c(-c3ccc(F)cc3)n2)cc1", 99),
    ("COc1cc2c3c(n(CCCN4CCCC4)c(=O)c2cc1OC)-c1cc2c(cc1C3=O)OCO2", 11.8),
    ("CCN1C(=O)N(CC)C2C1NN=C1SC(c3ccccc3)=CC(=O)N12 (configuration not stated)", 36.7),
    ("CC(=O)Nc1ccc(NC(=O)Nc2cccc(-c3nc(-c4ccc(NC(=O)c5cccnc5)cc4Cl)no3)c2)cc1C(F)(F)F", -65),
    ("CCNC(=O)Oc1ccc(/C(=C(/C)c2ccc(Cl)cc2)c2ccc(OCCN3CCCC3)cc2)cc1", 75.4),
    ("CC(=O)Oc1ccc(CCN2C(=O)CSC2=S)cc1", 69),
    ("CCN(CC)Cc1c(-c2cccc(OC(F)(F)F)c2)[nH]c2ccc(N3CCCC3)cc2c1=O", 93.3),
]
